Biological target: Ba/F3-FL-EGFR-del19-T790M-C797S (Homo sapiens, UniProt P00533, DEL746-750/T790M/C797S, cells depend on it)
Sequence (P00533 with tags, fused parts or gaps DEL746-750/T790M/C797S): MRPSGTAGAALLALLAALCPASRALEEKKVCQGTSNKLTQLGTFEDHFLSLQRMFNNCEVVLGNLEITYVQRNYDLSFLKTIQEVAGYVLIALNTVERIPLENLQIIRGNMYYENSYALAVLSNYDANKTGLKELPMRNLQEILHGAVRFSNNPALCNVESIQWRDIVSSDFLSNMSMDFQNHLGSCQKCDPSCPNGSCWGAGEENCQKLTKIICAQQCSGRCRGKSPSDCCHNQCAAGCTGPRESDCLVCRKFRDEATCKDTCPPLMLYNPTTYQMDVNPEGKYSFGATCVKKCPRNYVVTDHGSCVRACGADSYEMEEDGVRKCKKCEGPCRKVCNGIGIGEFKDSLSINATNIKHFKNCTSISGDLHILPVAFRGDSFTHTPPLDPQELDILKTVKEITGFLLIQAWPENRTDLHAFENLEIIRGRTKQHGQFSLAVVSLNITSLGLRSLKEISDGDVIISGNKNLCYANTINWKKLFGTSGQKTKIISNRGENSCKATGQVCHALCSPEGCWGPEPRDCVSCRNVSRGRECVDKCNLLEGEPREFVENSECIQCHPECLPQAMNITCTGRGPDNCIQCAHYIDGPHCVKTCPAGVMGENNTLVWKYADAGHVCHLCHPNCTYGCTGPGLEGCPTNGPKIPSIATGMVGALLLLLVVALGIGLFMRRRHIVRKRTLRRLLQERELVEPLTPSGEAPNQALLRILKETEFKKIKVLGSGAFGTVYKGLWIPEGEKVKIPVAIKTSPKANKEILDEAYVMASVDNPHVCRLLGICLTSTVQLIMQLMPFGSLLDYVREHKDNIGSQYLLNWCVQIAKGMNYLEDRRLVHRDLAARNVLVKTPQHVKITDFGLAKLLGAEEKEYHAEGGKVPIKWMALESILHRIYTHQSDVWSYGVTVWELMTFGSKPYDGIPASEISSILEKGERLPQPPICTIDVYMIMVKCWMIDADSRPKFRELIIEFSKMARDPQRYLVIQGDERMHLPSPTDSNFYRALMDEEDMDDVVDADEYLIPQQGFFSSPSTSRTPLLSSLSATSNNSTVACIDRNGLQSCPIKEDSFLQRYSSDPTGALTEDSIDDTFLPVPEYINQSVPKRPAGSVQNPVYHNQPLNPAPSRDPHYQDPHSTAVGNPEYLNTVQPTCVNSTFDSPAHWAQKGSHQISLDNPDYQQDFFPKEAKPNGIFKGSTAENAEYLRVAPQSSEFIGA
Assay: CellTiter-Glo proliferation, Ba/F3-FL-EGFR-del19-T790M-C797S
Format: cell-based
Details: 72 hours, read-out: Ba/F3-FL-EGFR-del19-T790M-C797S IC50/nM
Procedure: Promega CellTiter-Glo reagent was used to detect the effects of small molecule inhibitors on the proliferation of three Ba/F3 cell lines (Ba/F3-FL-EGFR-de119, Ba/F3-FL-EGFR-de119-T790M, Ba/F3-FL-EGFR-de119-T790M-C797S). The cell lines were cultured in an incubator at 37° C. and 5% CO2. Cells were passaged regularly and cells in the logarithmic phase were used for plating. […] Cell viability was detected by CellTiter-Glo luminescence assay. […]
I'd appreciate it if you marked entries 1 when GI50 is lower than 8 nM and -1 when it is not.

CC(C)c1ccc(N2CC(N(C)S(C)(=O)=O)C2)c2cnc(Nc3ccnc(N4CC[C@@H](O)[C@@H](F)C4)n3)cc12 [Compound P39a] : -1
CC(C)c1ccc(N2C[C@H](N(C)S(C)(=O)=O)[C@H]2C)c2cnc(Nc3ccnc(N4CC[C@H](O)[C@H](F)C4)n3)cc12 [Compound P41b] : 1
CC(C)c1ccc(N2C[C@H](N(C)S(C)(=O)=O)[C@H]2C)c2cnc(Nc3ccnc(-c4cnn(S(=O)(=O)C5CC5)c4)n3)cc12 : 1

# input for lookup
Ask | Hi there! Is GI50 for CC(C)c1ccc(N2C[C@H](N(C)S(C)(=O)=O)[C@H]2C)c2cnc(Nc3ccnc(N4CC[C@@H](O)[C@@H](F)C4)n3)cc12 [Compound P41a] below 8 nM, do you know?
Reply | 1
